For each record, write down the corresponding Plant response rating, Pigweed, Palmer.
Test system: pigweed, palmer
Experiment: Test C preemergence
Format: in vivo, Amaranthus palmeri
Conditions: Preemergence, 1000 g ai/ha; visual rating after 10 days, 0 to 100 scale (0 no effect, 100 complete control)

query: Dear colleague, I am looking for the recorded Plant response rating, Pigweed, Palmer of the following compound: Cc1ccc(-c2cccc(C(=O)N3C[C@H](C)Oc4c(C)cccc43)c2)nn1 [Compound 160]
result: 20

query: Entry C[C@H]1CN(C(=O)c2cccc(-c3ccc(Cl)nc3)c2)c2cccc(Cl)c2O1 [Compound 383] please
result: 10

query: Entry Cc1cnn(-c2cccc(C(=O)N3C[C@H](C)Oc4c(Cl)cccc43)c2)c1 [Compound 207] please
result: 90

query: Entry C[C@H]1CN(C(=O)c2cccc(-n3cccc3)c2)c2cccc(Cl)c2O1 [Compound 222] please
result: 50

query: Entry C[C@H]1CN(C(=O)c2cccc(-c3cncc(Cl)c3)c2)c2cccc(Cl)c2O1 [Compound 384] please
result: 30

query: Entry Cc1cnc(-c2cccc(C(=O)N3C[C@H](C)Oc4c(C)cccc43)c2)cn1 [Compound 162] please
result: 30

query: Entry Cc1cc(-c2cccc(C(=O)N3C[C@H](C)Oc4c(C)cccc43)c2)ccn1 [Compound 163] please
result: 0

query: Entry Cc1nccc(-c2cccc(C(=O)N3C[C@H](C)Oc4c(C)cccc43)c2)n1 [Compound 250] please
result: 80

query: Entry Cc1ncc(-c2cccc(C(=O)N3C[C@H](C)Oc4c(Cl)cccc43)c2)s1 [Compound 296] please
result: 100
